Biological target: hMC4R (human, UniProt P32245 1-332)
Sequence (P32245 whole entry): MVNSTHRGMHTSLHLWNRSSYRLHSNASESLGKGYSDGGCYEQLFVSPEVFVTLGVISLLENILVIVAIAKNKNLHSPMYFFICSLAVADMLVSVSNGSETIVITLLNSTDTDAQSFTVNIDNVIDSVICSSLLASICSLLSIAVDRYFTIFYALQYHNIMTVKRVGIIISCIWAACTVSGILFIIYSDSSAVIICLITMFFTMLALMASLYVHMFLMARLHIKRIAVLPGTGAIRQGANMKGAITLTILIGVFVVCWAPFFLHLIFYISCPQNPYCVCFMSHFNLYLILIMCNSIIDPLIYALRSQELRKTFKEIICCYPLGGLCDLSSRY
Test: cell-based or functional assay
Ends that are not written are not given here.
Give measured EC50 (nM), NDP-MSH stimulated cAMP production in the presence of 0.10 µM AgRP protein for each item. Keep answers brief.
Note: unit nM is implicit; provide only the numeric part.

Please give the documented EC50 (nM), NDP-MSH stimulated cAMP production in the presence of 0.10 µM AgRP protein of SSRRCVRLHESCLGQQVPCCDPCATCYCRFFNAFCYCRQLGTAMNPCSQT-NH2 (disulfide (positions not given here)) [AgRP-2Q] 6.66

Please give the documented EC50 (nM), NDP-MSH stimulated cAMP production in the presence of 0.10 µM AgRP protein of KKRRCVRLHESCLGQQVPCCDPCATCYCRFFNAFCYCRKLKTKMNPCSRT-NH2 (disulfide (positions not given here)) [AgRP-4K] 1.72

Please give the documented EC50 (nM), NDP-MSH stimulated cAMP production in the presence of 0.10 µM AgRP protein of SSRRCVRLHESCLGQQVPCCDPAATCYCRFFNAFCYCR-NH2 (disulfide (positions not given here); not fully specified; also: oxidatively folded, disulfide pairing not given here) [AgRP(83-120)] 4.92

Please give the documented EC50 (nM), NDP-MSH stimulated cAMP production in the presence of 0.10 µM AgRP protein of SSRRCVRLHESCLGQQVPCCDPCATCYCRFFNAFCYCRKLKTKMNPCSRT-NH2 (disulfide (positions not given here)) [AgRP-2K] 4.54

Please give the documented EC50 (nM), NDP-MSH stimulated cAMP production in the presence of 0.10 µM AgRP protein of SSQQCVRLHESCLGQQVPCCDPCATCYCRFFNAFCYCRQLGTAMNPCSQT-NH2 (disulfide (positions not given here)) [AgRP-4Q] 1.8

Data provenance: patent US20140148397A1
